# Test system: methylguanidine-decomposing enzyme
# Procedure Text: Inhibition of the enzyme: residual activity after treatment with inhibitor
# Format: biochemical, Alcaligenes
# Run Parameters: conditions and concentrations of Table 1
Endpoint Label: Inhibition of the enzyme (in words)

Guide cases for Inhibition of the enzyme (in words), answers given:
Kindly indicate its recorded Inhibition of the enzyme (in words). Item: O=[N+]([O-])[O-].[Ag+] [AgNO3, silver nitrate] markedly inhibited

Kindly indicate its recorded Inhibition of the enzyme (in words). Item: O[C@H](CS)[C@H](O)CS (racemic) markedly inhibited

Kindly indicate its recorded Inhibition of the enzyme (in words). Item: [Cl][Hg][Cl] [HgCl2, mercurie chloride] markedly inhibited

Kindly indicate its recorded Inhibition of the enzyme (in words). Item: OCCS markedly inhibited

Lab note: next compound to report on.
Kindly indicate its recorded Inhibition of the enzyme (in words). Item: II markedly inhibited
